Test system: MDA-MB-231
Experiment: NCI tumour cell line growth inhibition, 48 h
Active and inactive are the calls of the source. Rule as the data show it: active = GI50 up to about 1.1 µM and inactive = higher.
Lab note: assign the record to one of active, inactive

> print(dat)
                                   compound  test.target     label
1  O=C(Nn1c(-c2ccccc2)nc2ccccc2c1=O)c1ccc(O)cc1   MDA-MB-231  inactive

[ask] Called result for Cc1cnc2nc(-c3ccc(F)cc3)cc(O)c2c1
[reply] inactive

[ask] Called result for O=C1c2cc3c(cc2CC12Cc1cc4c(cc1C2=O)CCC4)CCC3
[reply] inactive

###

Tested on: UO-31
Experiment: NCI tumour cell line growth inhibition, 48 h
Active and inactive are the calls of the source. Rule as the data show it: active = GI50 up to about 1.1 µM and inactive = higher.
Lab note: assign the record to one of active, inactive

Reference set (4 entries):
> print(dat)
                                   compound     label
1      Cc1c(C(=O)O)oc2ccc([N+](=O)[O-])cc12  inactive
2  C=CCN(CC=C)CC(C(C)=O)C(c1ccccc1)c1c(O)c2ccccc2oc1=O (stereo not given)  inactive
3  CC(=O)CC1(CBr)Nc2ccc([N+](=O)[O-])cc2NC1=O (stereo not given)  inactive
4  O=[N+]([O-])c1ccc(Nc2cccc3c4cc[nH]c(-c5ccccc5)c-4nc23)c([N+](=O)[O-])c1  inactive

Please turn your attention to the following entry.
[ask] Called result for CN(C)CCNC(=O)c1ccc(Cl)c2c(Nc3ccc(S(=O)(=O)N=C(N)N)cc3)c3ccccc3nc12
[reply] active
